Protocol Summary: rat acute oral toxicity
Protocol Conditions: in vivo
Entries whose LD50 is below 600 mg/kg take Yes; entries at or above 600 mg/kg take No.

Compound	Label
CC(=O)CC(C)=O	Yes

In the record for Nc1c(Cl)c(F)nc(OCC(=O)O)c1Cl , is LD50 less than 600 mg/kg? No

In the record for N#Cc1c(Cl)c(Cl)c(Cl)c(C#N)c1Cl , is LD50 less than 600 mg/kg? Yes

In the record for Oc1ccccc1-c1ccccc1 , is LD50 less than 600 mg/kg? No

In the record for CCN(CC)C(=O)c1cccc(C)c1 , is LD50 less than 600 mg/kg? No

In the record for Cc1ccc(O)cc1 , is LD50 less than 600 mg/kg? Yes

In the record for CCCCCCCCCCCCCCCCCCN , is LD50 less than 600 mg/kg? No

In the record for C=CNC=O , is LD50 less than 600 mg/kg? No

In the record for COP(=S)(OC)SCC(=O)N(C)C=O , is LD50 less than 600 mg/kg? Yes

In the record for CC(C)(C)C(O)(CCc1ccc(Cl)cc1)Cn1cncn1 (centres undefined) , is LD50 less than 600 mg/kg? No

In the record for Cc1ccc(Nc2ccc(Nc3ccc(C)cc3)c3c2C(=O)c2ccccc2C3=O)cc1 , is LD50 less than 600 mg/kg? No

In the record for CI , is LD50 less than 600 mg/kg? Yes

In the record for C1=CC2CCC1C2 , is LD50 less than 600 mg/kg? No

In the record for CN=C=S , is LD50 less than 600 mg/kg? Yes

###

Protocol Summary: GHS categories as the set defines them, by LD50: 1 up to 5, 2 up to 50, 3 up to 300, 4 up to 2000, 5 above 2000 mg/kg
Protocol Conditions: rat; in vivo; po
Kindly supply the reported GHS category values for the records listed here.
Answers are plain numbers.

Kindly give each listed record's GHS category.
1. Cc1c([N+](=O)[O-])cc2c(c1[N+](=O)[O-])C(C)(C)CC2(C)C
2. COC1=CC(=O)C[C@@H](C)[C@]12Oc1c(Cl)c(OC)cc(OC)c1C2=O

5
5

###

Protocol Summary: GHS categories as the set defines them, by LD50: 1 up to 5, 2 up to 50, 3 up to 300, 4 up to 2000, 5 above 2000 mg/kg
Protocol Conditions: rat; in vivo; po
Kindly supply the reported GHS category values for the records listed here.
Numbers only.

Some compounds with known GHS category results, for comparison:
Compound	GHS category
CCn1c2ccccc2c2ccccc21	5
CC1=CC2[C@@H](C(=O)O1)C2(C)C (stereo partly specified)	5
O=C1Cc2cccc(F)c2N1	4
O=c1ccc2cccnc2n1-c1cccc(C(F)(F)F)c1	3
CC1(C)C=C(n2ccccc2=O)c2cc(C#N)ccc2C1=O	3
CCOc1ccc(Nc2ccc(C(=C3C=CC(=[N+](CC)Cc4cccc(S(=O)(=O)[O-])c4)C=C3C)c3ccc(N(CC)Cc4cccc(S(=O)(=O)O)c4)cc3C)cc2)cc1	5
CCN(CC)C(=O)C(C)Oc1cccc2ccccc12 (stereo unspecified)	5
C=CC(C)(O)CCCC(C)CCCC(C)CCCC(C)C (stereo unspecified)	5
O=C(C=Cc1ccccc1)OCCCc1ccccc1	5
CCC(C(=O)NC(=O)NC(C)=O)c1ccccc1 (stereo unspecified)	5

Kindly give each listed record's GHS category.
1. COC(=O)c1ccc(C(=O)Nc2cc(Cl)ccc2Cl)cc1[N+](=O)[O-]
2. CCN(Cc1cccc(S(=O)(=O)O)c1)c1ccc(C(=C2C=CC(=[N+](CC)Cc3cccc(S(=O)(=O)[O-])c3)C=C2)c2ccccc2)cc1
3. CC1=C(/C=C/C(C)=C/C=C/C(C)=C\C(=O)O)C(C)(C)CCC1
4. CC/C=C/C=C\CCCCCCCCOC(C)=O
5. O=C1c2ccc(Br)cc2C(=O)C1(Br)c1ccc2ccccc2c1 (stereo unspecified)
6. COCCOC(=O)C(=O)Nc1nc(-c2ccccc2)cs1

[4, 5, 5, 4, 5, 5]

###

Protocol Summary: GHS categories as the set defines them, by LD50: 1 up to 5, 2 up to 50, 3 up to 300, 4 up to 2000, 5 above 2000 mg/kg
Protocol Conditions: rat; in vivo; po
Kindly supply the reported GHS category values for the records listed here.
Answers are plain numbers.

Kindly give each listed record's GHS category.
1. O=C1NC(=O)C(c2ccc(O)cc2)N1 (configuration not stated)
2. Cc1c(Cc2ccc(-c3ccccc3-c3nn[nH]n3)cc2)c(=O)nc2nc[nH]n12
3. CO/N=C(\C(=O)N[C@@H]1C(=O)N2C(C(=O)OCOC(=O)C(C)(C)C)=C(/C=C\c3scnc3C)CS[C@H]12)c1csc(N)n1
4. Cc1cc(C(=O)NCCc2ccc(S(=O)(=O)NC(=O)NC3CCCCC3)cc2)no1
5. CCOC(=O)C(=O)Nc1cc(SCCOC)nc(C)n1
6. CCC(CC)Nc1nnc(-c2ccccc2)c2ccccc12
7. O=C(O)CCCCC(=O)O

5
4
5
5
4
5
5

###

Kindly supply the reported GHS category values for the records listed here.
Protocol Summary: GHS categories as the set defines them, by LD50: 1 up to 5, 2 up to 50, 3 up to 300, 4 up to 2000, 5 above 2000 mg/kg
Protocol Conditions: rat; in vivo; po
Give bare numbers.

Some molecules with known GHS category results, for comparison:
Molecule	GHS category
C[C@@H]1CC(C)(C)O[C@](Cn2cncn2)(c2cc3ccccc3o2)O1	4
COc1ccc2c(c1)CCN(c1ccccc1)C2c1ccccc1F (stereo not drawn)	4
CCCN(CCC)c1c([N+](=O)[O-])cc(S(C)(=O)=O)cc1[N+](=O)[O-]	5
COc1ccc(N=NC(C(C)=O)C(=O)Nc2ccccc2OC)c([N+](=O)[O-])c1 (stereo not drawn)	5

Kindly give each listed record's GHS category.
1. COc1ncc(F)c2nc(S(=O)(=O)Nc3c(F)cccc3F)nn12
2. Cc1cc(C)cc(N2C(=O)c3ccc4c5ccc6c7c(ccc(c8ccc(c3c48)C2=O)c75)C(=O)N(c2cc(C)cc(C)c2)C6=O)c1
3. O=C1NC(=O)C(=c2[nH]c(=C3C(=O)NC(=O)NC3=O)c3ccccc23)C(=O)N1
4. CCCC(=O)OCCC(C)CCCC(C)C (stereo not drawn)
5. CC1CC(c2ccccc2)C(c2ccccc2)C(=O)O1 (stereo not drawn)
6. CCOC(=O)c1nn(-c2ccc(OC)cc2)c2c1CCN(c1ccc([N+](=O)[O-])cc1)C2=O
7. CCC(COC(=O)c1ccccc1C(=O)OCC(CC)CC(C)C)CC(C)C (stereo not drawn)

1: 5; 2: 5; 3: 5; 4: 5; 5: 4; 6: 5; 7: 5

Kindly give each listed record's GHS category.
1. CC(C)(C)CC(C)(C)c1ccc(O)c(-n2nc3ccccc3n2)c1
2. CCS(=O)(=O)c1cccnc1S(=O)(=O)NC(=O)Nc1nc(OC)cc(OC)n1
3. O=c1c2cc(Oc3ccc(Cl)cc3)ccc2nnn1Cc1cccnc1
4. CCCNC(=O)c1sc(-c2ccc(OC)c(OC)c2)nc1C
5. CCCCCCCC1CCCC1=O (stereo not drawn)
6. CCCc1c(Cc2ccc(-c3ccccc3-c3nn[nH]n3)cc2)c(=O)nc2[nH][nH]c(=O)n12
7. CCOC(=O)C(=O)Nc1cc(SCCOC(=O)C(=O)OCC)nc(C)n1

5
5
5
5
5
4
4

###

Protocol Summary: rat acute oral toxicity
Protocol Conditions: in vivo
Kindly supply the reported log10(LD50) values for the records listed here.
Could you please treat all values as log10 of LD50 in mg/kg?

Kindly give each listed record's log10(LD50).
1. CCC(N)CO (stereo not given)
2. CN=C(O)Oc1cccc(C)c1
3. Nc1ccc(Sc2ccc(N)cc2)cc1
4. Clc1ccc(C(c2ccc(Cl)cc2)C(Cl)(Cl)Cl)cc1

[2.90, 2.43, 2.95, 1.94]

Kindly give each listed record's log10(LD50).
1. ClC1=C(Cl)C(Cl)(C2(Cl)C(Cl)=C(Cl)C(Cl)=C2Cl)C(Cl)=C1Cl
2. O=[N+]([O-])c1cccc(Cl)c1

3.08
2.48

###

Protocol Summary: GHS categories as the set defines them, by LD50: 1 up to 5, 2 up to 50, 3 up to 300, 4 up to 2000, 5 above 2000 mg/kg
Protocol Conditions: rat; in vivo; po
Kindly supply the reported GHS category values for the records listed here.
One number for each entry.

Some molecules with known GHS category results, for comparison:
Molecule	GHS category
CO[Si](CC(C)C)(OC)OC	5
CCOP(=O)(CN(CCO)CCO)OCC	5
CC(C)CCCCCCCCCCO	5
Cc1cc(C(C)(C)C)c(O)c(C)c1CC#N	5
O=C(O)CC(=O)C(=O)O	5

Kindly give each listed record's GHS category.
1. CCCCCCCCCCCCCCCCCC#N
2. O=C1NC(=O)C(N=NC2C(=O)NC(=O)NC2=O)C(=O)N1
3. CC(C)=CCN(CC=C(C)C)CCC(C#N)(c1cccc2ccccc12)C(C)C (stereo unspecified)

1: 5; 2: 5; 3: 4

Kindly give each listed record's GHS category.
1. CN1C[C@H](c2ccnn2C)CC2c3cccc4[nH]cc(c34)C[C@H]21 (stereo partly specified)
2. CCC(=O)OC1CC2CC1C1CC=CC21 (stereo unspecified)
3. CCN1C(=O)CCc2c(OCC(O)CN3CCC(Cc4ccccc4)CC3)cccc21 (stereo unspecified)

4
5
4

Kindly give each listed record's GHS category.
1. COc1ccc(C=CC(C)=O)cc1
2. C[C@@H]1O[C@@H](O[C@@H]2[C@@H](O)[C@H](OCCc3ccc(O)c(O)c3)O[C@H](CO)[C@H]2OC(=O)C=Cc2ccc(O)c(O)c2)[C@H](O)[C@H](O)[C@H]1O
3. COc1cc2c(cc1OC)C(c1cccc(Cl)c1)=NN=C(C)C2
4. CC(C)CCOCCc1ccccc1
5. CON=CC1=CCCN(C(=O)Oc2ccc(C(C)C)cc2)C1
6. CCCNC(=O)c1cnc2ccccn2c1=O
7. COc1ccc(NC(=O)c2cc3ccccc3cc2O)cc1
8. CC(C)OC(=O)c1cc(Cl)ccc1OC(N)=O

1. 5
2. 5
3. 5
4. 5
5. 4
6. 3
7. 5
8. 5
